target: ETR1 1-157; test: MST
measurementType: Kd (nM)

binder: MKPRLCFNFRRRSISPCYISISYLLVAKLFKLFKIH [synthetic full length PLS peptide PLS(FL)]
measurementType: Kd
measuredResult: 1520
